This collection of values is drawn from patent US20250092017A1.

# experimental system: Ba/F3-FL-EGFR (Homo sapiens)
# Construct: FL read as full length
# experiment summary: CellTiter-Glo proliferation, Ba/F3-FL-EGFR
# Assay type: cell-based
# condition: 72 hours, read-out: Ba/F3-FL-EGFR IC50/nM
# Method: Promega CellTiter-Glo reagent was used to detect the effects of small molecule inhibitors on the proliferation of five Ba/F3 cell lines (Ba/F3-FL-EGFR, Ba/F3-FL-EGFR-L858R, Ba/F3-FL-EGFR-L858R-T790M-C797S, Ba/F3-TEL-EGFR-L858R-C797S and Ba/F3-FL-EGFR-del19-C797S). The cell lines were cultured in an incubator at 37° C. and 5% CO2. Cells were passaged regularly and cells in the logarithmic phase were used for plating. […] Cell viability was detected by CellTiter-Glo luminescence assay. […]
reported property: GI50 (nM)

Input: Give the value of GI50 reported for the following: CC(C)c1ccc(N2CC(CS(C)(=O)=O)C2)c2cnc(Nc3ccnc(-c4cnn(C)c4)n3)cc12
Output: 739

Input: Give the value of GI50 reported for the following: CC(C)c1ccc(N2CC(CC(N)=O)C2)c2cnc(Nc3ccnc(-c4cnn(S(=O)(=O)C5CC5)c4)n3)cc12
Output: 628

Input: Give the value of GI50 reported for the following: COC1CCN(c2nccc(Nc3cc4c(C(C)C)ccc(N5CC(N(C)S(C)(=O)=O)C5)c4cn3)n2)CC1F (centres unmarked)
Output: 1090

Input: Give the value of GI50 reported for the following: CCN(C1CN(c2ccc(C(C)C)c3cc(Nc4ccnc(N5CCC(OC)C(F)C5)n4)ncc23)C1)S(C)(=O)=O (centres unmarked)
Output: 1460

Input: Give the value of GI50 reported for the following: CCS(=O)(=O)N(C)[C@H]1CN(c2ccc(C(C)C)c3cc(Nc4ccnc(N5CCC(OC)C(F)C5)n4)ncc23)[C@@H]1C (some centres unmarked)
Output: 593

(1) CC(C)c1ccc(N2CC(CS(C)(=O)=O)C2)c2cnc(Nc3ccnc(-c4cnn(S(C)(=O)=O)c4)n3)cc12
(2) CCCS(=O)(=O)C[C@H]1CN(c2ccc(C(C)C)c3cc(Nc4ccnc(-c5cnn(S(=O)(=O)C6CC6)c5)n4)ncc23)[C@@H]1C
(3) CC(C)c1ccc(N2CC(CS(C)(=O)=O)C2)c2cnc(Nc3ccnc(-c4cnn(CC#N)c4)n3)cc12
(4) CC(C)c1ccc(N2CC(CC(N)=O)C2)c2cnc(Nc3ccnc(N4CCC(O)C(F)C4)n3)cc12 (centres unmarked)
(5) CC(C)c1ccc(N2C[C@H](N(C)S(C)(=O)=O)[C@H]2C)c2cnc(Nc3ccnc(-c4cnn(S(=O)(=O)C5CC5)c4)n3)cc12
Input: # rank by GI50, ascending (min first) Form field (ranking): labels in requested order.
Output: 5, 1, 2, 3, 4
(5: 121 nM, 1: 365 nM, 2: 656 nM, 3: 1420 nM, 4: 7380 nM)

###

# experimental system: Ba/F3-FL-EGFR (Homo sapiens, UniProt P00533)
# Construct: FL read as full length
# Sequence (P00533 whole entry, change not shown): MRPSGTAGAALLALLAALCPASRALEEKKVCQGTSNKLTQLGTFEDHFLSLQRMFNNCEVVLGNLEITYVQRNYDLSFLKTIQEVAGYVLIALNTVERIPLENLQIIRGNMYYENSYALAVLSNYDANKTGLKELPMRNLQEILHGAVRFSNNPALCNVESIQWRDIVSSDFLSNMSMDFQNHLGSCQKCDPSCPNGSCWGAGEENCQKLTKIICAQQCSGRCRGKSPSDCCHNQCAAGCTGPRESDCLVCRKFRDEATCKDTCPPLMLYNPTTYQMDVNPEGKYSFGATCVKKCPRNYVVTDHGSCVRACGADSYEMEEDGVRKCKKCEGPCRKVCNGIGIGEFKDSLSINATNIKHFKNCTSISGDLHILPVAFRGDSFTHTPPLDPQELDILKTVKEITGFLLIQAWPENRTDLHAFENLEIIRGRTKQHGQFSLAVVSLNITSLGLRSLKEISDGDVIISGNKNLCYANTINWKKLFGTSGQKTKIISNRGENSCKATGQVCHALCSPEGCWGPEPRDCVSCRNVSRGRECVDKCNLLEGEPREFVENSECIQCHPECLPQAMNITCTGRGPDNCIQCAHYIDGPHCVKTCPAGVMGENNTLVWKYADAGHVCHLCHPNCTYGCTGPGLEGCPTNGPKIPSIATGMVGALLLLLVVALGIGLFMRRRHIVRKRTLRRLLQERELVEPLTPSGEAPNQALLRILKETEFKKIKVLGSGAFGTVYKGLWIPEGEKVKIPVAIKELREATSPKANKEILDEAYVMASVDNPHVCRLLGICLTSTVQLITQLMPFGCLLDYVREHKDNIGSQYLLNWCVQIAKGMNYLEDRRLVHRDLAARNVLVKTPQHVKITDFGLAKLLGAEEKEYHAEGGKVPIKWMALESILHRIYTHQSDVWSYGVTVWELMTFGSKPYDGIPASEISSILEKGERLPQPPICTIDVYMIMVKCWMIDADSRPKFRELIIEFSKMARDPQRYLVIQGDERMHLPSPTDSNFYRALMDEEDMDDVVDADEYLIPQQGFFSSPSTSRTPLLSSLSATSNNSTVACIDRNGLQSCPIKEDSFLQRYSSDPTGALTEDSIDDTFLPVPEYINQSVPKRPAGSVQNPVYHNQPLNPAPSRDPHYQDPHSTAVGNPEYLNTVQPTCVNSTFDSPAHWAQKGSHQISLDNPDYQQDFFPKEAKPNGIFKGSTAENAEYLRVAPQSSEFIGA
# experiment summary: CellTiter-Glo proliferation, Ba/F3-FL-EGFR
# Type: cell-based
# condition: 72 hours, read-out: Ba/F3-FL-EGFR IC50/nM
reported property: GI50 (nM)

Input: Give the value of GI50 reported for the following: CC(C)c1ccc(N2C[C@H](NS(C)(=O)=O)[C@H]2C)c2cnc(Nc3ccnc(N4CCC(O)C(F)C4)n3)cc12 (stereo partly drawn) [Compound P25]
Output: 618

(A) COCCS(=O)(=O)n1cc(-c2nccc(Nc3cc4c(C(C)C)ccc(N5CC(CS(C)(=O)=O)C5)c4cn3)n2)cn1 [Compound H20]
(B) CCCS(=O)(=O)NC1CN(c2ccc(C(C)C)c3cc(Nc4ccnc(N5CCC(O)C(F)C5)n4)ncc23)C1 (stereo not drawn) [Compound P48]
Input: Between A and B , which one shows the larger GI50 value? To answer, give the label that identifies your chosen option.
Output: A

###

# experimental system: Ba/F3-FL-EGFR-L858R-T790M-C797S (Homo sapiens, UniProt P00533, T790M/C797S/L858R, cells depend on it)
# Sequence (P00533 whole entry T790M/C797S/L858R): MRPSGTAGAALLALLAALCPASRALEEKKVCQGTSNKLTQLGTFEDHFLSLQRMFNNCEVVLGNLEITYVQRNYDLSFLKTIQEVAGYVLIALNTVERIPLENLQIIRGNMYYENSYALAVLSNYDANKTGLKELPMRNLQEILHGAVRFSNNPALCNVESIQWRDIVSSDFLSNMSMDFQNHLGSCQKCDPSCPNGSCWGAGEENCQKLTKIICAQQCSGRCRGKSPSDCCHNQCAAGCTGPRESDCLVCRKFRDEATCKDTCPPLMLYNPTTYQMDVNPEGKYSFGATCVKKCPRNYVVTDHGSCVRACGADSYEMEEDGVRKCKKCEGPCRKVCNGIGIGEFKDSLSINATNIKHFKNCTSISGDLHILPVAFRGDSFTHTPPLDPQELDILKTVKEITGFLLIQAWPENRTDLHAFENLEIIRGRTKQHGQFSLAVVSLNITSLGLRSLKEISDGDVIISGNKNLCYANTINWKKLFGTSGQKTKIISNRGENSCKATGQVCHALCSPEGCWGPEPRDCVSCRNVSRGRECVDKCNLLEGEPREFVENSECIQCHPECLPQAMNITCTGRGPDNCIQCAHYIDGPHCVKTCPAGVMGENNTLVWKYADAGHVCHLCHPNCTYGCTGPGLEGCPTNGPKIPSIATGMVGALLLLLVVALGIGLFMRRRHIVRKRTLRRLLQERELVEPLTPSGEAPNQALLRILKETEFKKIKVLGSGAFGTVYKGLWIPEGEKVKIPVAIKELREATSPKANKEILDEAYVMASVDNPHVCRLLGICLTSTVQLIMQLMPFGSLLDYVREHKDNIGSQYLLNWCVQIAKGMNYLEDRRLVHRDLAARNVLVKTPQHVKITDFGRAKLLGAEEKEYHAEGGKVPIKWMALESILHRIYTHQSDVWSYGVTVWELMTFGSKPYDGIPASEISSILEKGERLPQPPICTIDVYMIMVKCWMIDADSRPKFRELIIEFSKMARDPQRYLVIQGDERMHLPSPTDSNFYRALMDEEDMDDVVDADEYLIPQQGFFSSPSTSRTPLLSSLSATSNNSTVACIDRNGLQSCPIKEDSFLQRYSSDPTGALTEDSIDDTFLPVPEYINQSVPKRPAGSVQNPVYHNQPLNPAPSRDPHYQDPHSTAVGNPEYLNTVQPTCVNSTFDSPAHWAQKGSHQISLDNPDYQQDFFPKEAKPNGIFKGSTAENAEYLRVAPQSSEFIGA
# experiment summary: CellTiter-Glo proliferation, Ba/F3-FL-EGFR-L858R-T790M-C797S
# Type: cell-based
# condition: 72 hours, read-out: Ba/F3-FL-EGFR-L858R-T790M-C797S IC50/nM
reported property: GI50 (nM)

Input: Give the value of GI50 reported for the following: CC(C)c1ccc(N2C[C@H](CS(C)(=O)=O)[C@H]2C)c2cnc(Nc3ccnc(-c4cnn(S(=O)(=O)N(C)C)c4)n3)cc12 [Compound H28]
Output: 68

(I) CC(C)c1ccc(N2C[C@H](N(C)S(C)(=O)=O)[C@H]2C)c2cnc(Nc3ccnc(N4CC[C@H](O)[C@H](F)C4)n3)cc12 [Compound P41b]
(II) CC(C)c1ccc(N2CC(CS(C)(=O)=O)C2)c2cnc(Nc3ccnc(-c4cnn(S(=O)(=O)C5COC5)c4)n3)cc12 [Compound H17]
(III) CC(C)c1ccc(N2CC(NS(C)(=O)=O)C2)c2cnc(Nc3ccnc(N4CCC(C)(O)C(F)C4)n3)cc12 (centres unmarked) [Compound P51]
(IV) CC(C)c1ccc(N2CC(CC(N)=O)C2)c2cnc(Nc3ccnc(N4CCC(O)C(F)C4)n3)cc12 (centres unmarked) [Compound P7]
Input: Returns the items ordered by GI50, from maximum to minimum. Form field (ranking): labels in requested order.
Output: IV, II, III, I
(IV: 554 nM, II: 127 nM, III: 63 nM, I: 3.7 nM)

###

# System: Ba/F3-FL-EGFR-del19-C797S
# experiment summary: CellTiter-Glo proliferation, Ba/F3-FL-EGFR-del19-C797S
# Format: cell-based
# condition: 72 h, proliferation, 72 hours, CellTiter-Glo; read-out: Ba/F3-FL-EGFR-del19-C797S IC50/nM
# Protocol: Promega CellTiter-Glo reagent was used to detect the effects of small molecule inhibitors on the proliferation of five Ba/F3 cell lines (Ba/F3-FL-EGFR, Ba/F3-FL-EGFR-L858R, Ba/F3-FL-EGFR-L858R-T790M-C797S, Ba/F3-TEL-EGFR-L858R-C797S and Ba/F3-FL-EGFR-del19-C797S). The cell lines were cultured in an incubator at 37° C. and 5% CO2. Cells were passaged regularly and cells in the logarithmic phase were used for plating. […] Cell viability was detected by CellTiter-Glo luminescence assay. […]
reported property: IC50 (nM)

Input: Recall the reported IC50 of COC1CCN(c2nccc(Nc3cc4c(C(C)C)ccc(N5CC(N(C)S(C)(=O)=O)C5)c4cn3)n2)CC1F (stereo not drawn) when tested on Ba/F3-FL-EGFR-del19-C797S.
Output: 159

Input: Recall the reported IC50 of CC(=O)NC1CN(c2ccc(C(C)C)c3cc(Nc4ccnc(N5CCC(O)C(F)C5)n4)ncc23)C1 (stereo not drawn) when tested on Ba/F3-FL-EGFR-del19-C797S.
Output: 3120

Input: Recall the reported IC50 of COC1CCN(c2nccc(Nc3cc4c(C(C)C)ccc(N5CC(NS(=O)(=O)C6COC6)C5)c4cn3)n2)CC1F (stereo not drawn) when tested on Ba/F3-FL-EGFR-del19-C797S.
Output: 339

Input: Recall the reported IC50 of CC(C)c1ccc(N2CC(NS(C)(=O)=O)C2)c2cnc(Nc3ccnc(N4CCC(O)C(F)C4)n3)cc12 (stereo not drawn) when tested on Ba/F3-FL-EGFR-del19-C797S.
Output: 205

(I) CC(C)c1ccc(N2C[C@H](N(C)S(C)(=O)=O)[C@H]2C)c2cnc(Nc3ccnc(N4CC[C@@H](O)[C@@H](F)C4)n3)cc12 [Compound P41a]
(II) CC(C)c1ccc(N2CC(CS(C)(=O)=O)C2)c2cnc(Nc3ccnc(-c4cnn(S(=O)(=O)C5CCOC5)c4)n3)cc12 (stereo not drawn)
Input: Given I and given II , which shows the smaller recorded IC50? To answer, give the label that identifies your chosen option.
Output: II
(II: 20 nM, I: 57 nM)

###

# experimental system: Ba/F3-FL-EGFR (Homo sapiens, UniProt P00533)
# Construct: FL read as full length
# experiment summary: CellTiter-Glo proliferation, Ba/F3-FL-EGFR
# Type: cell-based
# condition: 72 hours, read-out: Ba/F3-FL-EGFR IC50/nM
reported property: GI50 (nM)

These solved cases illustrate the format of a correct answer.
Input: Give the value of GI50 reported for the following: COCCS(=O)(=O)n1cc(-c2nccc(Nc3cc4c(C(C)C)ccc(N5C[C@H](CS(C)(=O)=O)[C@H]5C)c4cn3)n2)cn1
Output: 76

Input: Give the value of GI50 reported for the following: CC(C)c1ccc(N2CC(NS(C)(=O)=O)C2)c2cnc(Nc3ccnc(N4CCC(C)(O)C(F)C4)n3)cc12 (stereo not shown)
Output: 1750

Input: Give the value of GI50 reported for the following: CC(C)c1ccc(N2C[C@H](N(C)S(C)(=O)=O)[C@H]2C)c2cnc(Nc3ccnc(N4CC[C@H](O)[C@H](F)C4)n3)cc12 [Compound P41b]
Output: 464

Input: Give the value of GI50 reported for the following: CC(C)c1ccc(N2CC(NS(C)(=O)=O)C2)c2cnc(Nc3ccnc(N4CCC(O)C(C)(F)C4)n3)cc12 (stereo not shown) [Compound P45]
Output: 2780

Input: Give the value of GI50 reported for the following: COCCS(=O)(=O)n1cc(-c2nccc(Nc3cc4c(C(C)C)ccc(N5CC(CS(C)(=O)=O)C5)c4cn3)n2)cn1 [Compound H15]
Output: 148

Input: Give the value of GI50 reported for the following: CCCS(=O)(=O)N[C@H]1CN(c2ccc(C(C)C)c3cc(Nc4ccnc(N5CCC(OC)C(F)C5)n4)ncc23)[C@@H]1C (stereo partly shown)
Output: 565

Input: Give the value of GI50 reported for the following: CC(C)c1ccc(N2CC(CS(C)(=O)=O)C2)c2cnc(Nc3ccnc(-c4cnn(S(=O)(=O)N(C)C)c4)n3)cc12
Output: 559

(P) CCS(=O)(=O)N[C@H]1CN(c2ccc(C(C)C)c3cc(Nc4ccnc(N5CCC(OC)C(F)C5)n4)ncc23)[C@@H]1C (stereo partly shown)
(Q) CC(C)OCCS(=O)(=O)n1cc(-c2nccc(Nc3cc4c(C(C)C)ccc(N5C[C@H](CS(C)(=O)=O)[C@H]5C)c4cn3)n2)cn1
Input: Between P and Q , which one shows the larger GI50 value? To answer, give the label that identifies your chosen option.
Output: Q
